ASSAY_INFO: in vitro
CONDITION_NOTES: human, HMEC cells versus NCI-H526 cells
Description: Selectivity index, ratio of IC50 for cytotoxicity against HMEC cells to GI50 for antiproliferative activity against human NCI-H526 cells
READOUT_LABEL: selectivity ratio

In: Name the reported selectivity ratio value associated with the compound CNC(=O)c1cccc(-c2ccc(C3CC3N(C)CCN(C)C(=O)Oc3ccc(CONC(=O)CCCCCCC(=O)Nc4ccccc4)cc3)cc2)c1 (racemic)
Out: > 100

----------
Consider the following IC50 values measured on Lysine-specific histone demethylase 1A (Homo sapiens, UniProt O60341).
Supply the numeric figure in µM, leaving out any unit text.

In: Notebook entry, Lysine-specific histone demethylase 1A (Homo sapiens, UniProt O60341) assay: IC50 of CN(CCN(C)C1CC1c1ccccc1)C(=O)Oc1ccc(CONC(=O)CCCCCCC(=O)Nc2ccccc2)cc1 (centres undefined) = ?
Out: 1.29

In: Further, for "CNC(=O)c1cccc(-c2ccc([C@@H]3C[C@H]3N(C)CCN(C)C(=O)Oc3ccc(CONC(=O)CCCCCCC(=O)Nc4ccccc4)cc3)cc2)c1" ?
Out: 0.444

In: Also "CNC(=O)c1cccc(-c2ccc([C@H]3C[C@@H]3N(C)CCN(C)C(=O)Oc3ccc(CONC(=O)CCCCCCC(=O)Nc4ccccc4)cc3)cc2)c1" ?
Out: 0.457

In: What do you get for CNC(=O)c1cccc(-c2ccc(C3CC3N(C)CCN(C)C(=O)Oc3ccc(CONC(=O)CCCCCCC(=O)Nc4ccccc4)cc3)cc2)c1 (racemic) ?
Out: 0.126
